target: Cannabinoid receptor 1 (Homo sapiens)
Sequence (P21554 whole entry): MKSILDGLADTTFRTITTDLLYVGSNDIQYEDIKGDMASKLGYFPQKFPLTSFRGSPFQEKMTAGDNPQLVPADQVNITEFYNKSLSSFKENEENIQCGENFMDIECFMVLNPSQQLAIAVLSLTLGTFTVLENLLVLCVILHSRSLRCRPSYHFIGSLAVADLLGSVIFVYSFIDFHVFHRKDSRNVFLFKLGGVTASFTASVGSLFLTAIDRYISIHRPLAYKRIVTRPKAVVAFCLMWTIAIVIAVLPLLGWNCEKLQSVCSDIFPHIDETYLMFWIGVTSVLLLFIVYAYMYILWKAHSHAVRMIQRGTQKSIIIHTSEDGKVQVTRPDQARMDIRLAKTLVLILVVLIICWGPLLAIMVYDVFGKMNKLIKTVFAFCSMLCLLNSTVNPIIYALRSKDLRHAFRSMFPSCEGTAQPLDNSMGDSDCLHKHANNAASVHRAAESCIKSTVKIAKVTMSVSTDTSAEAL
measurement_type: pKi
Here pKi is given on a logarithmic scale as minus log10 of the concentration in mol/L.

Value of pKi reported for the molecule Cc1c(C(=O)Nc2cccc(O)c2)nn(-c2ccc(Cl)cc2Cl)c1-c1ccc(Cl)cc1 is 7.28

---

target: Peroxisome proliferator-activated receptor alpha (Homo sapiens, UniProt Q07869)
Sequence (Q07869 whole entry): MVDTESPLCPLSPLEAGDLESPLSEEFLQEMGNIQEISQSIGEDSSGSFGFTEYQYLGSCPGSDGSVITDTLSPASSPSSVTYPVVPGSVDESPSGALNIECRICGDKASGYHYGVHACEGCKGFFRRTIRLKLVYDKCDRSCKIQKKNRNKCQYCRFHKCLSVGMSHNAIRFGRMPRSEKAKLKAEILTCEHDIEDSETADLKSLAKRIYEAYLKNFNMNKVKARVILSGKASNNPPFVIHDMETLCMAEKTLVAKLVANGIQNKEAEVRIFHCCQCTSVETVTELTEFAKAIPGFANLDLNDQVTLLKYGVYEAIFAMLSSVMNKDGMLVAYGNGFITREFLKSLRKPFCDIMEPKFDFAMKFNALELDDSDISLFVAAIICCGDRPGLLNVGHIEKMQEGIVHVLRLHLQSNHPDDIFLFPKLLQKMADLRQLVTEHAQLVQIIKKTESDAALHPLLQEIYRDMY
procedure_details: Agonist activity at human PPARalpha expressed in MCF7 cells co-transfected CPTI DR1-type RE after 6 hrs by luciferase reporter gene assay
Assay type: functional, cell-based
measurement_type: EC50 (nM)
Reply with just the number (in nM).

Value of EC50 reported for the compound CCOC(=O)C(C)(C)Oc1cccc(NC(=O)c2nn(-c3ccc(Cl)cc3Cl)c(-c3ccc(Cl)cc3)c2C)c1 is 856

Value of EC50 reported for the compound Cc1c(C(=O)Nc2cccc(O)c2)nn(-c2ccc(Cl)cc2Cl)c1-c1ccc(Cl)cc1 is 887

Value of EC50 reported for the compound Cc1c(C(=O)Nc2ccc(O)cc2)nn(-c2ccc(Cl)cc2Cl)c1-c1ccc(Cl)cc1 is 971

Value of EC50 reported for the compound CCCCCCCC/C=C\CCCCCCCC(=O)NCCO [OLEOYLETHANOLAMIDE] is 185

Value of EC50 reported for the compound CCOC(=O)C(C)(C)Oc1ccc(NC(=O)c2nn(-c3ccc(Cl)cc3Cl)c(-c3ccc(Cl)cc3)c2C)cc1 is 1480
